test name: Aqueous solubility of compound in phosphate buffer at pH 6.5 by HPLC or MS/MS analysis
Type: physicochemical
run parameters: phosphate buffer, read-out: solubility
Grouping key: solubility. Bins: low (below 3 µg/mL), medium (3 µg/mL to below 40 µg/mL), high (40 µg/mL or more)

Please let me know in which category the item "O=C1COc2ccc(C(=O)N3CCC(c4c[nH]c5cc(Cl)ccc45)CC3)cc2N1" belongs. low

Would you mind sorting "O=C1COc2ccc(C(=O)N3CCC(C(c4ccc(F)cc4)c4ccc(F)cc4)CC3)cc2N1" into the appropriate category? low

// bin(item) where item = O=C1CO[C@H]2CCN(C(=O)N3CCC(Cc4ccc(C(F)(F)F)cc4)CC3)C[C@H]2N1 (racemic) high

Band for "O=C1COc2ccc(C(=O)N3CCC(Cc4cccc(C(F)(F)F)c4)CC3)cc2N1" ? medium

Consider "O=C1COc2ccc(C(=O)N3CCC(C(c4ccccc4)c4ccccc4)CC3)cc2N1" . To which solubility class does it belong? low

Band for the recorded solubility of "O=C1CO[C@@H]2CCN(C(=O)N3CCC(Cc4ccc(C(F)(F)F)cc4)CC3)C[C@@H]2N1" ? high

Class? Entry: "O=C1COc2ccc(C(=O)N3CCC(c4c[nH]c5ccccc45)CC3)cc2N1" medium

Kindly state the category for this molecule: O=C1CO[C@H]2CCN(C(=O)N3CCC(Cc4ccc(C(F)(F)F)cc4)CC3)C[C@@H]2N1 (racemic) high

Looking at "O=C1C[C@H]2CCN(C(=O)N3CCC(Cc4ccc(C(F)(F)F)cc4)CC3)C[C@H]2N1" , which class would you pick? high

Any idea which band "O=C1CSc2ccc(C(=O)N3CCC(Cc4ccc(C(F)(F)F)cc4)CC3)cc2N1" is in? medium

Each molecule maps to one class by solubility. Which class for "O=C1COc2ccc(C(=O)N3CCC(Cc4ccc(F)cc4)CC3)cc2N1" ? low

Band for the recorded solubility of "O=C1COc2ccc(C(=O)N3CCC(c4c[nH]c5ccc(Cl)cc45)CC3)cc2N1" ? low

Hi there! Could you help me figure out the category for "O=C1COc2ccc(C(=O)N3CCC(Cc4ccc(C(F)(F)F)cc4)CC3)cc2N1" please? medium

Record "O=C1COc2ccc(C(=O)N3CCC(Cc4ccccc4)CC3)cc2N1" — which class? low

Which class does "O=C(c1ccc2cn[nH]c2c1)N1CCC(Cc2ccc(C(F)(F)F)cc2)CC1" fall in? low

Which category fits this record: "O=C1COc2ccc(C(=O)N3CCC(Cc4cccc(F)c4)CC3)cc2N1" medium
